So I've got a bunch of binders here, and I need their solution mAb binding, % of PRLR binding values.
- Target entity: T1, human PRLR (Biacore antigen) (human, UniProt P16471 25-234, limits assumed)
- T1 construct: The construct injected over captured antibody is not described (a soluble form is likely); also called huPRLR
- T1 sequence: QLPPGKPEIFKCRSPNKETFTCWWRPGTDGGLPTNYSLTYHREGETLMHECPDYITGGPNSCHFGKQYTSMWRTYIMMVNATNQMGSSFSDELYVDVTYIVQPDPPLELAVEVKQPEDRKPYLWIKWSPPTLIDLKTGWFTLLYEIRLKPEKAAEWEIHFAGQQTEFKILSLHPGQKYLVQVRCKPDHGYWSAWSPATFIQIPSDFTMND
- Test details: SPR simultaneous binding; PRLR held by surface mAb LFA102

solution mAb binding, % of PRLR binding lookup needed for chAb5 (antibody, human IgG1, kappa, V domains shown, chimeric, murine variable and human G1/kappa constant regions) VH: QVQLQQPGAELVRPGTSVKLSCKASGYTFTSFWMHWVKQRPGQGLEWIGVIDPSDTYTNYNQKFKGKATLTVDTSSSTAYMQLSSLTSEDSAVYYCARGDYSNWFTYWGQGTLVTVSA VL: DVVMTQTPLSLPVSLGDQASISCRSSQRLVHSNGNTYLHWYLQKPGQSPKLLIYKVSNRFSGVPDRFSGSGSGTDFTLKISRVEAEDLGVYFCSQSTHVPWTFGGGTKLEIKT , thanks.
102%

solution mAb binding, % of PRLR binding lookup needed for Ab48 (antibody, human IgG1, kappa, V domains shown, humanized from Ab8; G1; also called Ab3 HC.1a and Ab3 LC.1a) VH: EVQLVQSGAEVKKPGASVKVSCKASGYTFTDYNIHWVRQAPGQGLEWIGYIYPNNDGTGYNQKFKSRATLTVDNSTSTAYMELRSLRSDDTAVYYCARGDGNYVGDMDYWGQGTTVTVSS VL: DIQMTQSPSSLSASVGDRVTITCRASENIYSYLAWYQQKPGKPPKLLVYNAKTLAEGVPSRFSGSGSGTDFTLTISSLQPEDFATYYCQHHYATPFTFGQGTKLEIKR , thanks.
-2%

solution mAb binding, % of PRLR binding lookup needed for chAb6 (antibody, human IgG1, kappa, V domains shown, chimeric, murine variable and human G1/kappa constant regions) VH: QVQLQQPGAELVMPGSSVKLSCKASGYTFTTYWMHWVKQRPGQGLEWIGEIDPSDSYSNYNQKFKDKATLTVDKSSSTAYMQLSSLTSEDSAVYYCARNGGLGPAWFSYWGQGTLVTVSA VL: DIVMTQSQKFMSTTVGDRVSITCKASQYVGTAVAWYQQKPGQSPKLLIYSASNRYTGVPDRFTDSGSGTDFTLTISNLQSEDLADYFCQQYSSYPWTFGGGTKLEIKT , thanks.
90%

solution mAb binding, % of PRLR binding lookup needed for Ab49 (antibody, human IgG1, kappa, V domains shown, humanized from Ab8; G1; also called Ab3 HC.1a and Ab3 LC.1b) VH: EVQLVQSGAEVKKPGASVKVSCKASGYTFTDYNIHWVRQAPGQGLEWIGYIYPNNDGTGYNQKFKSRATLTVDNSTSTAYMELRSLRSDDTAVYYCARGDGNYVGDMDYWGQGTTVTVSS VL: DIQMTQSPSSLSASVGDRVTITCRASENIYSYLAWYQQKPGKAPKLLVYNAKTLAEGVPSRFSGSGSGTDFTLTISSLQPEDFATYYCQHHYATPFTFGQGTKLEIKR , thanks.
-2%
